# test-system: CSF-1R of cynomolgous monocytes (cynomolgous)
# protocol-text: cell-based or functional assay
recorded-endpoint: % survival (cynomolgous monocytes, 5 µg/ml antibody) (%)
Express the result in % but write the number alone.

Ask | Suppose we examine the binder Mab 2E10 (antibody, V domains shown, Murine monoclonal antibody from a hybridoma) VH: QVQLKESGPGLVAPSKSLSITCTVSGSSLDSFDISWIRQSPGKGLEWLGVIWTGGGTNYNSGFMSRLRITKDNSKSQVLLKMNSLQSDDTAIYYCVRDPRLYFDVWGAGTTVTVSS VL: NIVMTQSPKSMSMSVGERVTLSCKASEDVVTYVSWYQQKPDQSPKLLIYGASNRYTGVPDRFTGSGSATDFTLTISSVQAEDLADYYCGQTFSYPTFGTGTKLEIK ; what % survival (cynomolgous monocytes, 5 µg/ml antibody) value has been reported?
Reply | 17
